Test system: L1210 leukemia ip in BDF1 mice, survival T/C
Experiment: NCI In Vivo Anticancer Drug Screen. Data for tumor model L1210 Leukemia (intraperitoneal) in B6D2F1 (BDF1) mice
Conditions: endpoint: mean survival time; dose: 12.5 mg/kg/injection; schedule: Q01DX009 (ip); vehicle: Klucel (hydroxypropylcellulose) (HPC); higher = longer survival
Toxic doses and inconclusive results are not listed.
VALUE TYPE: T/C

QUERY: Requested read-out: T/C. Entry: C=[CH][Sn]([CH]=C)([CH]=C)[O]C(C)=O
RESULT: 103 % of control

QUERY: Another compound to look at: COc1c([N+](=O)[O-])cc2c(c1C)OCOC2
RESULT: 95 % of control

QUERY: // query: NC(CCl)=NCCCN1CCCCC1
RESULT: 104 % of control

QUERY: What do you have for CCOC(=O)c1ccc(=O)[nH]c1.[Ag] ?
RESULT: 90 % of control

QUERY: Query N#CS/C=C\C(N)=O next
RESULT: 104 % of control

QUERY: Try this compound next: CCOC(=O)C1(C(C)C)OC2(O)C3CCCN3C(=O)C(C(C)C)N2C1=O (stereo unspecified)
RESULT: 98 % of control

// data source = PubChem BioAssay AID248
